assay: NCI Yeast Anticancer Drug Screen. Data for the bub3 strain (AID 167); settings: S. cerevisiae bub3 mutant strain, at 50.0 µM, active compounds read high
Compounds without any hit were thinned out: in the full panel of roughly 79,000, 15% have a hit. Activity calls are given as the source filed them. Rule as the data show it: active = growth inhibition above about 70%; inactive = the rest.
metricName: growth inhibition

Examples with answers:
compound	obsValue
CC(Cc1ccccc1)NN1CCOC(c2ccccc2)C1C (stereo unspecified)	46% (inactive)
Oc1cccnc1CN1CCCCC1	-10.8% (inactive)
CN(C)CCC1(C2=CCCC2)CC/C(=C\c2ccc(Cl)cc2)C1=O (stereo unspecified)	92.2% (active)
O=C(Cc1nc2ccccc2s1)Nc1ccc2ccccc2c1	97.8% (active)
O=C(C1=NNC(c2ccccc2)C1C(=O)c1ccccc1)c1ccccc1 (stereo unspecified)	75% (active)
C=C1C(=O)OC2/C=C(\C(=O)O)CC/C=C(\C)CC(OC(=O)/C=C(\C)CC)C12 (stereo unspecified)	84.2% (active)

Q: # lookup: growth inhibition of O=C(Nc1ccccc1)O/N=C1/CCCC/C1=C\c1ccccc1
Result: 81.6% (active)

Q: So what's the measured growth inhibition for this one? C/C(=N\NC(=S)NNC(=S)N1CCCc2ccccc21)c1ccccn1
Result: 90.7% (active)

Q: Bench note: what growth inhibition did CC1=CC(=O)c2c(O)c3c(c(O)c2C1=O)C1C(O)C(C3=O)C23C(=O)c4c(O)c(C)cc(O)c4C(O)=C2C(=O)CC(O)C13 (stereo unspecified) show?
Result: 91.1% (active)

Q: Reported growth inhibition for CCOC(=O)C1=C(N)N(S(=O)(=O)c2ccc(C)cc2)CCC(C(=O)OC)=C1 : what is it?
Result: 26.2% (inactive)

Q: I am curious: what growth inhibition value has been reported for OCCN(CCO)c1cc(/C=C/c2ccnc3ccccc23)nc2ccccc12 ?
Result: -12.6% (inactive)

Q: Consider the compound shown here: c1ccc2c(c1)-c1cccc3cncc-2c13 What is its recorded growth inhibition?
Result: 91.2% (active)
